IC50 overview
biological target: SUMO-activating enzyme (Homo sapiens, UniProt Q9UBT2); assay: blockers of UBC9-mediated SUMO conjugation – biochemical, AlphaScreen, SUMOylation inhibitor project, confirmation (AID 2018); assay type: functional
Sequence (Q9UBE0 whole entry): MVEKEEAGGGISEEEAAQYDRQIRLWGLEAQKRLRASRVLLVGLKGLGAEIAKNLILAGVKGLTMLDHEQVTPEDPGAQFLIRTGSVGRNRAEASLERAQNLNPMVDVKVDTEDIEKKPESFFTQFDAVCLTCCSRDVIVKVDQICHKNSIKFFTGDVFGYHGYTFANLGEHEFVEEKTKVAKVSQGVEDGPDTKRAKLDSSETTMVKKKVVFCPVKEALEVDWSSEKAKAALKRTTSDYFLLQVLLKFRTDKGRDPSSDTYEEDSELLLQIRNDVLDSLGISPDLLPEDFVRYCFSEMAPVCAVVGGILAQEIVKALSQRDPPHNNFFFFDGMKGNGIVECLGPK
Sequence (Q9UBT2 whole entry): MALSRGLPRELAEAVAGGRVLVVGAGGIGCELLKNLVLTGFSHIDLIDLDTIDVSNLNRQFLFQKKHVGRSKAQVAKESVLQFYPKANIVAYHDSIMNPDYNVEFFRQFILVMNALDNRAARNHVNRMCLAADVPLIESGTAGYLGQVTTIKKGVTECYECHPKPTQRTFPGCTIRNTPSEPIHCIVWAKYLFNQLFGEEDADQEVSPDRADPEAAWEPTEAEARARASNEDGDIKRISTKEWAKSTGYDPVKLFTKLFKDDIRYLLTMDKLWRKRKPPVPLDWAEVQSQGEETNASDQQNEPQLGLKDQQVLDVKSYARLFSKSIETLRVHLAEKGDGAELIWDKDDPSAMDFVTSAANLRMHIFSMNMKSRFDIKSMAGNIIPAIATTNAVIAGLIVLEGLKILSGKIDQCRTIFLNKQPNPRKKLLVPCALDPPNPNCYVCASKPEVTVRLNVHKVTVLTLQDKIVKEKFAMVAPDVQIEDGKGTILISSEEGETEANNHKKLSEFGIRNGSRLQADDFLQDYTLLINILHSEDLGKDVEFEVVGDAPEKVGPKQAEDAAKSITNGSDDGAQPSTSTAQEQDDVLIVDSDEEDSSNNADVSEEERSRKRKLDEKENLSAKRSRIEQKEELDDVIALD
Active and inactive are the calls of the source. Cut-off read from the data, not from the text of the source: actives have a measured IC50 and inactives only a lower limit.
recorded-metric: IC50

1) O=C(Nc1ccccc1)c1ccc2nc(-c3ccco3)c(-c3ccco3)nc2c1; 1.54 µM (active)
2) O=C1c2ccccc2C(=O)C12OC2c1ccc(Cl)cc1 (centres undefined); 7.05 µM (active)
3) O=[N+]([O-])c1ccc(O)c(/C=N/NC(=S)Nc2ccc(Cl)cc2Cl)c1; 1.41 µM (active)
4) COc1ccc(-n2c(CNc3ccc(C)cc3)nnc2SCC(=O)Nc2nc(-c3ccccc3)cs2)cc1; 39.7 µM (active)
